Assay: Metabolic stability in human plasma assessed as parent compound remaining measured after 120 mins by LC-MS/MS analysis
Type: ADME, cell-free
Settings: read-out: Stability
parameter: remaining at 2 h

remaining at 2 h reported for this molecule C[C@H]1CC2(CCN(c3ccc(C(=O)N4CCC(CN5Cc6cc7c(cc6C5)C(=O)N(C5CCC(=O)NC5=O)C7=O)CC4)cc3)CC2)CN1c1ccc(C#N)c(Cl)c1 (stereo partly specified) : 69%

* * *

Experiment: Half life in Beagle dog at 1 mg/kg, iv measured upto 24 hrs by LC-MS/MS analysis
Assay type: ADME, organism-based, Canis lupus familiaris
Details: in vivo
parameter: half-life (h)
API: value field is a number in h; no unit string.

half-life reported for this compound C[C@H]1CC2(CCN(c3ccc(C(=O)N4CCC(CN5Cc6cc7c(cc6C5)C(=O)N(C5CCC(=O)NC5=O)C7=O)CC4)cc3)CC2)CN1c1ccc(C#N)c(Cl)c1 (stereo partly specified) : 9.9

* * *

Assay: Tmax in Beagle dog at 10 mg/kg, po measured upto 24 hrs by LC-MS/MS analysis
Format: ADME, organism-based, Canis lupus familiaris
Conditions: in vivo
parameter: Tmax (h)
API: value field is a number in h; no unit string.

Tmax reported for this molecule C[C@H]1CC2(CCN(c3ccc(C(=O)N4CCC(CN5Cc6cc7c(cc6C5)C(=O)N(C5CCC(=O)NC5=O)C7=O)CC4)cc3)CC2)CN1c1ccc(C#N)c(Cl)c1 (stereo partly specified) : 3

* * *

Test: Clearance in Sprague-Dawley rat at 2 mg/kg, iv measured upto 24 hrs by LC-MS/MS analysis
Conditions: in vivo
clearance at 24 h: recorded values
API: value field is a number in mL/min/kg; no unit string.

C[C@H]1CC2(CCN(c3ccc(C(=O)N4CC(N5Cc6cc7c(cc6C5)C(=O)N(C5CCC(=O)NC5=O)C7=O)C4)cc3)CC2)CN1c1ccc(C#N)c(Cl)c1 (some centres not stated)	14.5
C[C@H]1CC2(CCN(c3ccc(C(=O)N4CCC(N5Cc6cc7c(cc6C5)C(=O)N(C5CCC(=O)NC5=O)C7=O)CC4)cc3)CC2)CN1c1ccc(C#N)c(Cl)c1 (some centres not stated)	15.3
C[C@H]1CC2(CCN(c3ccc(C(=O)N4CCC(CN5Cc6cc7c(cc6C5)C(=O)N(C5CCC(=O)NC5=O)C7=O)CC4)cc3)CC2)CN1c1ccc(C#N)c(Cl)c1 (some centres not stated)	6

clearance at 24 h reported for this molecule C[C@H]1CC2(CCN(c3ccc(C(=O)N4CCC(F)(CN5Cc6cc7c(cc6C5)C(=O)N(C5CCC(=O)NC5=O)C7=O)CC4)cc3)CC2)CN1c1ccc(C#N)c(Cl)c1 (some centres not stated) : 7.83

clearance at 24 h reported for this molecule C[C@H]1CC2(CCN(c3ccc(C(=O)N4CC(CN5Cc6cc7c(cc6C5)C(=O)N(C5CCC(=O)NC5=O)C7=O)C4)cc3)CC2)CN1c1ccc(C#N)c(Cl)c1 (some centres not stated) : 25

clearance at 24 h reported for this molecule COC1(CN2Cc3cc4c(cc3C2)C(=O)N(C2CCC(=O)NC2=O)C4=O)CCN(C(=O)c2ccc(N3CCC4(CC3)C[C@H](C)N(c3ccc(C#N)c(Cl)c3)C4)cc2)CC1 (some centres not stated) : 13.8

clearance at 24 h reported for this molecule C[C@H]1CC2(CCN(c3ccc(C(=O)N4CCC(C)(CN5Cc6cc7c(cc6C5)C(=O)N(C5CCC(=O)NC5=O)C7=O)CC4)cc3)CC2)CN1c1ccc(C#N)c(Cl)c1 (some centres not stated) : 6.33

* * *

Assay: Metabolic stability in dog plasma assessed as parent compound remaining measured after 120 mins by LC-MS/MS analysis
Format: ADME, cell-free, Canis lupus familiaris
Details: read-out: Stability
parameter: remaining at 2 h (%)
API: value field is a number in %; no unit string.

remaining at 2 h reported for this molecule C[C@H]1CC2(CCN(c3ccc(C(=O)N4CCC(CN5Cc6cc7c(cc6C5)C(=O)N(C5CCC(=O)NC5=O)C7=O)CC4)cc3)CC2)CN1c1ccc(C#N)c(Cl)c1 (stereo partly specified) : 71

* * *

Assay: Half life in non human primate assessed as half life at 1 mg/kg, iv measured upto 24 hrs by LC-MS/MS analysis
Assay type: ADME, organism-based
Conditions: primates, in vivo
parameter: half-life (h)
API: value field is a number in h; no unit string.

half-life reported for this compound C[C@H]1CC2(CCN(c3ccc(C(=O)N4CCC(CN5Cc6cc7c(cc6C5)C(=O)N(C5CCC(=O)NC5=O)C7=O)CC4)cc3)CC2)CN1c1ccc(C#N)c(Cl)c1 (stereo partly specified) : 10

* * *

Test: AUC (0 to t) in ICR mouse at 5 mg/kg, po measured upto 24 hrs by LC-MS/MS analysis
Type: ADME, organism-based
Set-up: dose 5 mg/kg, time < 24 hrs, route po
Settings: in vivo
parameter: AUC(0-t) at 24 h (ng·h/mL)
API: value field is a number in ng·h/mL; no unit string.

AUC(0-t) at 24 h reported for this molecule C[C@H]1CC2(CCN(c3ccc(C(=O)N4CCC(CN5Cc6cc7c(cc6C5)C(=O)N(C5CCC(=O)NC5=O)C7=O)CC4)cc3)CC2)CN1c1ccc(C#N)c(Cl)c1 (stereo partly specified) : 85200

* * *

Experiment: Metabolic stability in non human primate plasma assessed as parent compound remaining measured after 120 mins by LC-MS/MS analysis
Assay type: ADME, cell-free
Conditions: primates, read-out: Stability
parameter: remaining at 2 h (%)
API: value field is a number in %; no unit string.

remaining at 2 h reported for this compound C[C@H]1CC2(CCN(c3ccc(C(=O)N4CCC(CN5Cc6cc7c(cc6C5)C(=O)N(C5CCC(=O)NC5=O)C7=O)CC4)cc3)CC2)CN1c1ccc(C#N)c(Cl)c1 (stereo partly specified) : 92

* * *

Assay: Tmax in ICR mouse at 5 mg/kg, po measured upto 24 hrs by LC-MS/MS analysis
Format: ADME, organism-based
Conditions: in vivo
parameter: Tmax (h)
API: value field is a number in h; no unit string.

Tmax reported for this molecule C[C@H]1CC2(CCN(c3ccc(C(=O)N4CCC(CN5Cc6cc7c(cc6C5)C(=O)N(C5CCC(=O)NC5=O)C7=O)CC4)cc3)CC2)CN1c1ccc(C#N)c(Cl)c1 (stereo partly specified) : 2

* * *

AUC(0-t) at 24 h: recorded values
Experiment: AUC (0 to t) in Sprague-Dawley rat at 1 mg/kg, iv measured upto 24 hrs by LC-MS/MS analysis
Format: ADME, organism-based
Design: dose 1 mg/kg, time < 24 hrs, route iv
Details: in vivo
API: value field is a number in ng·h/mL; no unit string.

Here's what some known entries look like.
C[C@H]1CC2(CCN(c3cnc(C(=O)N4CCC(CN5Cc6cc7c(cc6C5)C(=O)N(C5CCC(=O)NC5=O)C7=O)CC4)cn3)CC2)CN1c1ccc(C#N)c(Cl)c1 (some centres undefined)	495
C[C@H]1CC2(CCN(c3ccc(C(=O)N4CCC(CN5Cc6cc7c(cc6C5)C(=O)N(C5CCC(=O)NC5=O)C7=O)CC4)nn3)CC2)CN1c1ccc(C#N)c(Cl)c1 (some centres undefined)	1010
CN(c1ccc(C#N)c(Cl)c1)[C@H]1CC[C@H](NC(=O)c2ccc(N3CCN(C4CN(c5ccc6c(c5)C(=O)N(C5CCC(=O)NC5=O)C6=O)C4)CC3)cc2)CC1 (some centres undefined)	1300

AUC(0-t) at 24 h reported for this molecule N#Cc1ccc(O[C@H]2CC[C@H](NC(=O)c3ccc(N4CCC(CN5CCN(c6cc7c(cc6F)C(=O)N(C6CCC(=O)NC6=O)C7=O)CC5)CC4)nn3)CC2)cc1Cl (some centres undefined) [BAVDEGALUTAMIDE] : 2270

* * *

Experiment: Cmax in Beagle dog at 10 mg/kg, po measured upto 24 hrs by LC-MS/MS analysis
Format: ADME, organism-based, Canis lupus familiaris
Parameters: time < 24 hrs, dose 10 mg/kg, route po
Conditions: in vivo
parameter: Cmax (ng/mL)
API: value field is a number in ng/mL; no unit string.

Cmax reported for this compound C[C@H]1CC2(CCN(c3ccc(C(=O)N4CCC(CN5Cc6cc7c(cc6C5)C(=O)N(C5CCC(=O)NC5=O)C7=O)CC4)cc3)CC2)CN1c1ccc(C#N)c(Cl)c1 (stereo partly specified) : 1030

* * *

Test: Metabolic stability in dog liver microsome assessed as half life measured upto 45 mins in presence of NADPH by LC-MS/MS analysis
Type: ADME, Canis lupus familiaris
Details: liver microsomes
parameter: half-life at […]

half-life at […] reported for this molecule C[C@H]1CC2(CCN(c3ccc(C(=O)N4CCC(CN5Cc6cc7c(cc6C5)C(=O)N(C5CCC(=O)NC5=O)C7=O)CC4)cc3)CC2)CN1c1ccc(C#N)c(Cl)c1 (stereo partly specified) : > 1 h

* * *

IC50: recorded values
Target: UniProt:P10275
Sequence (P10275 whole entry): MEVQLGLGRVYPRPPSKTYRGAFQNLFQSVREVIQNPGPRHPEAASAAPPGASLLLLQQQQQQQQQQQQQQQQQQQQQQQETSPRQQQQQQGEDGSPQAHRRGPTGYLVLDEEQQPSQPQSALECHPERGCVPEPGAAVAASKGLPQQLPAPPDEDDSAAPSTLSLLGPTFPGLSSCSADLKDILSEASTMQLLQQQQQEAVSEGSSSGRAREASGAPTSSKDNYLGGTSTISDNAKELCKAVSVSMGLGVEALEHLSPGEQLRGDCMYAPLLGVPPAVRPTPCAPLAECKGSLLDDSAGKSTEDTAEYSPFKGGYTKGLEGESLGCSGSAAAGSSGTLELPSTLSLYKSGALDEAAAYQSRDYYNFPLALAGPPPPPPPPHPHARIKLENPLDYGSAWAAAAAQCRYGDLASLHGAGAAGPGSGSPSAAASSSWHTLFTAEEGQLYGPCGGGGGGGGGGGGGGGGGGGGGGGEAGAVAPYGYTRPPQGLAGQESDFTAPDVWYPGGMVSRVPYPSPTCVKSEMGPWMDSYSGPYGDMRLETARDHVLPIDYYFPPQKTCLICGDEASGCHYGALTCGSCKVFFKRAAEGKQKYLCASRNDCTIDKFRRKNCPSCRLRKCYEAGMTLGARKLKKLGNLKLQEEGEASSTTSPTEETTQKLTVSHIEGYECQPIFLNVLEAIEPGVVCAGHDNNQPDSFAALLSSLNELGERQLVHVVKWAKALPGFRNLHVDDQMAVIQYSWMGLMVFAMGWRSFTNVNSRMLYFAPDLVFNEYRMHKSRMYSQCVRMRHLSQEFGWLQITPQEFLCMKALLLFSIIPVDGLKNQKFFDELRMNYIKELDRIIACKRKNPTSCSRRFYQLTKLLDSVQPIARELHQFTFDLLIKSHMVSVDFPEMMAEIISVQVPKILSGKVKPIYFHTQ
API: value field is a number in nM; no unit string.

Here's what some known entries look like.
CN1CCN(C(=O)c2ccc(N3CCC4(CC3)CCN(c3ccc(C#N)c(Cl)c3)C4)cc2)CC1	80
CN1CCN(C(=O)c2ccc(N3CCC4(CCN(c5ccc(C#N)c(Cl)c5)C4)C3)cc2)CC1 (stereo not given)	1800
CN1CCN(c2ccc(C(=O)N[C@H]3CC[C@H](N(C)c4ccc(C#N)c(Cl)c4)CC3)cc2)CC1	15
CN(c1ccc(C#N)c(Cl)c1)[C@H]1CC[C@H](NC(=O)c2ccc(N3CCN(C4CN(c5ccc6c(c5)C(=O)N(C5CCC(=O)NC5=O)C6=O)C4)CC3)cc2)CC1 (stereo not given in full)	15

Now for a further compound.
IC50 reported for this compound CN1CCN(c2ccc(C(=O)N3CCC4(CC3)CCN(c3ccc(C#N)c(Cl)c3)C4)cc2)CC1 : 3600
